The entries below are paired with their reported activity change, negative = inhibition.
testProtocol: DUX4 transcriptional activity inhibition in cells – 293T cells, Gaussia and Italica luciferase, primary screen (AID 1224904);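 also: 0% = median of neutral control wells and -100% = median of positive control wells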
recordedConditions: 293T-iDUX4 ZSCAN4-Gaussia luciferase reporter, 24 h; stronger effect = lower value; concentration not given here
Out of some 37,000 compounds screened, about 290 (0.78%) were called active. Inconclusive results (about 10%) are left out. What follows is part of a selection rich in actives, with near analogues and random picks from the rest.

chemSmiles: C[C@H](CO)N1C[C@H](C)[C@H](CN(C)C(=O)CCN(C)C)OCc2ccccc2-c2c(n(C)c3ccccc23)C1=O
activity change, negative = inhibition / %: 0.0892

chemSmiles: Cc1noc(C)c1NC(=O)N[C@@H]1C=C[C@H](CC(=O)N2CCCCC2)O[C@H]1CO
activity change, negative = inhibition / %: 5.84

chemSmiles: COc1ccc2c3c(n(C)c2c1)[C@@H](CO)N(C(=O)C1CC1)CC31CN(C(=O)C2CCOCC2)C1
activity change, negative = inhibition / %: 9.17

chemSmiles: CN1c2ccc(-c3ccccc3F)cc2[C@@H]2[C@@H](CCN2C(=O)CN2CCOCC2)[C@H]1CO
activity change, negative = inhibition / %: 0.948

chemSmiles: CCCNC(=O)N1C[C@@H](O)COC[C@H]2O[C@H](CC(=O)N3CCC(Cc4ccccc4)CC3)CC[C@@H]21
activity change, negative = inhibition / %: -2.96

chemSmiles: CNC(=O)C[C@@H]1CC[C@H]2[C@H](COc3ccc(NC(=O)C4CC4)cc3C(=O)N2C)O1
activity change, negative = inhibition / %: 2.13

chemSmiles: COCC(=O)N1CC2(C1)[C@H](c1ccc(-c3cccc(F)c3)cc1)[C@@H](CO)N2C(=O)COC
activity change, negative = inhibition / %: 6.28

chemSmiles: COCC(=O)N1[C@@H](CO)[C@H](c2ccccc2)C12CN(C(=O)NC1CCCCC1)C2
activity change, negative = inhibition / %: 12.7

chemSmiles: COc1ccccc1NC(=O)N[C@H]1C=C[C@H](CC(=O)N[C@@H](C)c2ccccc2)O[C@H]1CO
activity change, negative = inhibition / %: -2

chemSmiles: CC(C)CC#Cc1ccc([C@@H]2[C@@H](CO)N3C(=O)CN(C(=O)c4cnccn4)C[C@@H]23)cc1
activity change, negative = inhibition / %: -2.25

chemSmiles: CCCNC(=O)N(C)C[C@H]1Oc2ncc(-c3ccc(C(=O)N(C)C)cc3)cc2C(=O)N([C@@H](C)CO)C[C@@H]1C
activity change, negative = inhibition / %: -0.44

chemSmiles: O=C(C[C@H]1CC[C@@H]2[C@H](COC[C@@H](O)CN2C(=O)Nc2ccc(Cl)cc2)O1)NC1Cc2ccccc2C1
activity change, negative = inhibition / %: -9.05

chemSmiles: COCC#Cc1cnc2c(c1)C(=O)N([C@H](C)CO)C[C@H](C)[C@H](CN(C)Cc1ccc(-c3ccccc3)cc1)O2
activity change, negative = inhibition / %: -1.2

chemSmiles: CCC(=O)N1[C@H](CO)[C@@H]2c3ccccc3N(S(=O)(=O)c3ccccc3C)C[C@@H]21
activity change, negative = inhibition / %: -0.934

chemSmiles: C/C=C/c1ccc2c(c1)O[C@@H](CN(C)C(=O)c1ccccn1)[C@H](C)CN([C@@H](C)CO)S2(=O)=O
activity change, negative = inhibition / %: -2.65

chemSmiles: CCCC(=O)Nc1ccc2c(c1)C(=O)N(C)[C@@H]1CC[C@H](CC(=O)NCCN3CCCCC3)O[C@@H]1CO2
activity change, negative = inhibition / %: -1.36
